pIC50: −log10 of the molar value. Counter-ions that a name gives are not always drawn.
Quick record of pIC50 values for HCV polymerase (Hepatitis C virus genotype 1b).
assay_readout: pIC50

Solved entries (count: 3):
- compound: "O=C(O)c1ccc2c(c1)nc(-c1ccc(OC(c3cccnc3)c3cccnc3)cc1F)n2C1CCCCC1 [Example 300]"
  target_of_assay: "HCV polymerase (Hepatitis C virus genotype 1b)"
  recorded_number: 7.35
- compound: "O=C(O)c1ccc2c(c1)nc(-c1ccc(Oc3cc(-c4cccc(Cl)c4)ncn3)cc1)n2C1CCCCC1 [Example 240]"
  target_of_assay: "HCV polymerase (Hepatitis C virus genotype 1b)"
  recorded_number: 7.26
- compound: "COc1cc(CCOc2ccc(-c3nc4cc(C(=O)O)ccc4n3C3CCCCC3)cc2)cc(OC)c1OC [Example 101]"
  target_of_assay: "HCV polymerase (Hepatitis C virus genotype 1b)"
  recorded_number: 6.85

1 = O=C(O)c1ccc2c(c1)nc(-c1ccc(OCCN3c4ccccc4CCc4ccccc43)cc1)n2C1CCCCC1 [Example 116]
2 = O=C(O)c1ccc2c(c1)nc(-c1ccc(Oc3cccc(Oc4ccccc4)c3)cc1)n2C1CCCCC1 [Example 129]
3 = COC(=O)c1ccc2c(c1)nc(-c1ccc(OCc3cc(C(=O)O)ccc3-c3ccc(Cl)cc3)cc1F)n2C1CCCCC1 [Example 281, hydrochloride]
4 = CN(C)C(=O)c1ccc(-c2ccc(Cl)cc2)c(COc2ccc(-c3nc4cc(-c5nnn[nH]5)ccc4n3C3CCCCC3)c(F)c2)c1 [Example 434]
Please give the order of these compounds when sorted by pIC50, largest value leading. Put the labels in the order asked and list them.
4, 3, 2, 1
(4: 7.96, 3: 7.28, 2: 6.92, 1: 6.43)
